A compilation of published IC50 results with XIAP (Homo sapiens).

Here are 3 compounds together with their reported answers.
C[C@H](NCCO)C(=O)N[C@H]1CCCC[C@H]2CC[C@@H](C(=O)N[C@@H](c3ccc(F)cc3)c3cn(CCCCc4ccc(CCCCn5cc([C@@H](NC(=O)[C@@H]6CC[C@@H]7CCCC[C@H](NC(=O)[C@H](C)NCCO)C(=O)N76)c6ccc(F)cc6)nn5)cc4)nn3)N2C1=O	< 0.1 µM
CN[C@@H](C)C(=O)N[C@H]1CC[C@H](n2cc(COCc3cn([C@H]4CC[C@H](NC(=O)[C@H](C)NC)C(=O)N5[C@H](CC[C@H]5C(=O)N[C@@H]5CCCc6ccccc65)C4)nn3)nn2)C[C@H]2CC[C@@H](C(=O)N[C@@H]3CCCc4ccccc43)N2C1=O (stereo in doubt)	< 0.01 µM
CN[C@@H](C)C(=O)N[C@H]1CCCC[C@H]2CC[C@@H](C(=O)N[C@@H](c3ccccc3)c3cn(CCN4CCN(CCn5cc([C@@H](NC(=O)[C@@H]6CC[C@@H]7CCCC[C@H](NC(=O)[C@H](C)NC)C(=O)N76)c6ccccc6)nn5)CC4)nn3)N2C1=O	< 0.1 µM

Respectfully, I request IC50 for each entry included below.
1. CN[C@@H](C)C(=O)N[C@H](C(=O)N1CCN(C(=O)c2c(F)c3ccccc3n2CC(=O)N(C)CCOCCOCCOCCOc2cc(CN3CCC(Oc4ccnc5ccsc45)CC3)on2)CC1)C1CCCCC1
2. CN[C@@H](C)C(=O)N[C@H](C(=O)N1CCN(C(=O)c2cc3cc(F)ccc3n2CC(=O)N2C[C@@H](Oc3cc(CN4CCC(Oc5ccnc6ccsc56)CC4)on3)C[C@H]2CO)[C@@H](C)C1)C1CCCCC1
3. Cc1nc(Nc2ncc(C(=O)Nc3c(C)cccc3Cl)s2)cc(N2CCN(CCOCCOCCOC[C@H]3CN[C@H](C)CN3CC(=O)N3CCN(C(=O)c4cc5cc(F)c(F)cc5n4C)C[C@H]3C)CC2)n1
4. CN[C@@H](C)C(=O)N[C@H](C(=O)N1CCN(C(=O)c2cc3c(OCCOCCOCCOCCOc4cc(CN5CCC(Oc6ccnc7ccsc67)CC5)on4)c(F)c(F)cc3n2C)CC1)C1CCCCC1
5. CN[C@@H](C)C(=O)N[C@H](C(=O)N1C[C@H]2CC[C@@H]1CN2C(=O)c1cc2cc(F)c(F)cc2n1C)C1CCCCC1
6. CN[C@@H](C)C(=O)N[C@H](C(=O)N1CCN(C(=O)c2c(C)c3ccccc3n2CCOC)CC1)C1CCCCC1

1: 3 to 30 µM; 2: 3 to 30 µM; 3: 3 to 30 µM; 4: 0.3 to 3 µM; 5: 3 to 30 µM; 6: 3 to 30 µM

====

Header: pIC50 / XIAP (Homo sapiens, UniProt P98170) / multiple publications
pIC50: −log10 of the molar value.

Here are 6 compounds together with their reported answers.
CN[C@@H](C)C(=O)N[C@H](C(=O)N1CCN(C(=O)c2cc3cc(F)ccc3n2CC(=O)N2CCC[C@H]2COc2cc(CN3CCC(Oc4ccnc5ccsc45)CC3)on2)CC1)C1CCCCC1	4.52 to 5.52
CN[C@@H](C)C(=O)N[C@H](C(=O)N1CCC[C@H]1c1nc(C(=O)c2cccc(OCCOCCOc3cc(CN4CCC(Oc5ccnc6ccsc56)CC4)on3)c2)cs1)C1CCCCC1	> 6.52
CN[C@@H](C)C(=O)N[C@H](C(=O)N1CCN(C(=O)c2c(C(=O)N(C)CCOCCOCCOc3cc(CN4CCC(Oc5ccnc6ccsc56)CC4)on3)c3cc(F)ccc3n2C)CC1)C1CCCCC1	5.52 to 6.52
CN[C@@H](C)C(=O)N[C@H](C(=O)N1CCN(C(=O)c2c(C(=O)NCCOCCOCCOCCOc3ccc(NC(=O)C[C@@H]4N=C(c5ccc(Cl)cc5)c5c(sc(C)c5C)-n5c(C)nnc54)cc3)c3cc(F)c(F)cc3n2C)CC1)C1CCCCC1	5.52 to 6.52
CN[C@@H](C)C(=O)N[C@H](C(=O)N1CCN(C(=O)c2c(C(=O)NCCOCCOCCOc3cc(CN4CCC(Oc5ccnc6ccsc56)CC4)n(C)n3)c3cc(F)c(F)cc3n2C)CC1)C1CCCCC1	5.52 to 6.52
CN[C@@H](C)C(=O)N[C@H](C(=O)N1CCN(C(=O)c2c(C(=O)N(C)CCOCCOCCOc3cc(CN4CCC(Oc5ccnc6ccsc56)CC4)on3)c3cc(F)c(F)cc3n2C)C[C@H]1C)C1CCCCC1	4.52 to 5.52

# per-item lookup of pIC50; items listed below
1. CN[C@@H](C)C(=O)N[C@H](C(=O)N1CCN(C(=O)c2c(C(=O)NCCOCCN3CCN(c4cc(Nc5ncc(C(=O)Nc6c(C)cccc6Cl)s5)nc(C)n4)CC3)c3cc(F)c(F)cc3n2C)CC1)C1CCCCC1
2. CN[C@@H](C)C(=O)N[C@H](C(=O)N1CCC[C@H]1c1nc(C(=O)c2cccc(OCCOCCOCCOCCOc3cc(CN4CCC(Oc5ccnc6ccsc56)CC4)on3)c2)cs1)C1CCCCC1
3. CN[C@@H](C)C(=O)N[C@H](C(=O)N1CCN(C(=O)c2cc3cc(F)ccc3n2CC(=O)N(C)CCOc2cc(CN3CCC(Oc4ccnc5ccsc45)CC3)on2)[C@@H](C)C1)C1CCCCC1
4. CN[C@@H](C)C(=O)N[C@H]1CCCC[C@H]2CC[C@@H](C(=O)N[C@H](COCc3cn([C@@H]4CC[C@H](NC(=O)[C@H](C)NC)C(=O)N5[C@H](CC[C@H]5C(=O)N[C@@H]5CCCc6ccccc65)C4)nn3)c3ccccc3)N2C1=O
5. CN[C@@H](C)C(=O)N[C@H](C(=O)N1CCN(C(=O)c2cc3cc(F)c(F)cc3n2CC(=O)N2CCOC[C@H]2COc2cc(CN3CCC(Oc4ccnc5ccsc45)CC3)on2)CC1)C1CCCCC1
6. CN[C@@H](C)C(=O)N[C@H](C(=O)N1CCN(C(=O)c2c(C)c3ccccc3n2CC(=O)N(C)CCOCCOCCOCCOc2cc(CN3CCC(Oc4ccnc5ccsc45)CC3)on2)CC1)C1CCCCC1

1: 5.52 to 6.52; 2: > 6.52; 3: 4.52 to 5.52; 4: > 7.30; 5: 4.52 to 5.52; 6: 4.52 to 5.52

Could I get pIC50 for every one of these entries?
1. CN[C@@H](C)C(=O)N[C@H](C(=O)N1CCN(C(=O)c2cc3cc(F)c(F)cc3n2CCOCCOCCOCCOc2cc(CN3CCC(Oc4ccnc5ccsc45)CC3)on2)CC1)C1CCCCC1
2. CN[C@@H](C)C(=O)N[C@H]1CC[C@@H](n2cc(COCc3cn([C@@H]4CC[C@H](NC(=O)[C@H](C)NC)C(=O)N5[C@H](CC[C@H]5C(=O)N[C@H]5CCCc6ccccc65)C4)nn3)nn2)C[C@H]2CC[C@@H](C(=O)NC3CCCc4ccccc43)N2C1=O (stereo partly drawn)
3. C[C@H](NCCO)C(=O)N[C@H]1CCCC[C@H]2CC[C@@H](C(=O)N[C@@H](c3ccccc3)c3cn(CCCCc4ccc(CCCCn5cc([C@@H](NC(=O)[C@@H]6CC[C@@H]7CCCC[C@H](NC(=O)[C@H](C)NCCO)C(=O)N76)c6ccccc6)nn5)cc4)nn3)N2C1=O
4. CN[C@@H](C)C(=O)N[C@H](C(=O)N1CCN(C(=O)c2cc3cc(F)c(F)cc3n2CC(=O)N2CCC[C@H]2COc2cc(CN3CCC(Oc4ccnc5ccsc45)CC3)on2)[C@@H](C)C1)C1CCC(F)(F)CC1
5. CN[C@@H](C)C(=O)N[C@H](C(=O)N1CCN(C(=O)c2c(Cl)c3cc(F)ccc3n2CC(=O)N(C)CCOCCOCCOCCOc2cc(CN3CCC(Oc4ccnc5ccsc45)CC3)on2)CC1)C1CCCCC1

4.52 to 5.52
> 8.00
> 7.00
4.52 to 5.52
4.52 to 5.52

// query pIC50 value for entry CN[C@@H](C)C(=O)N[C@H](C(=O)N1CCN(C(=O)c2c(C(=O)NCCOCCOCCOc3cc(CN4CCC(Oc5ccnc6ccsc56)CC4)on3)c3cc(F)c(OC)cc3n2C)CC1)C1CCCCC1
> 6.52
